assay.notes: Pharmacokinetic study in rats after intragastric administration
Format: in vivo
condition: both sexes, rat, plasma, po, SD rats, 2 mg/kg, read-out: Plasma concentration Cmax
measured.quantity: Cmax (ng/mL)
Entry rule: numbers only, all in ng/mL.

q: Endpoint output: Cmax of C[C@@H]1COCCN1c1cc(C(C)(C)C#N)c2c(n1)c(-c1cc[nH]n1)nn2C [Example 1] . Value?
a: 1110

---

assay.notes: Pharmacokinetic study in rats after intragastric administration
Assay type: in vivo
condition: both sexes, rat, plasma, po, SD rats, 2 mg/kg, read-out: Clearance CL/F
measured.quantity: CL/F (mL/min/kg)
# value in mL/min/kg; strip the unit string

q: Suppose we examine the compound C[C@@H]1COCCN1c1cc(C(C)(C)C#N)c2c(n1)c(-c1cc[nH]n1)nn2C ; what CL/F value has been reported?
a: 17.7

---

assay.notes: Long-term/accelerated stability test of crystalline salt forms in sealed aluminum foil bags
Type: physicochemical
condition: 4° C., after storage
measured.quantity: Crystalline form

# molecule, measured.quantity, result
data = [
    ("CC1COCCN1c1cc(C(C)(C)C#N)c2c(n1)c(-c1cc[nH]n1)nn2C.Cc1ccc(S(=O)(=O)O)cc1 (centres unmarked) [Crystalline form a of p-toluenesulfonate]", "Crystalline form", "Unchanged"),
    ("CC1COCCN1c1cc(C(C)(C)C#N)c2c(n1)c(-c1cc[nH]n1)nn2C.O=C(O)C=CC(=O)O (centres unmarked) [Crystalline form I of maleate]", "Crystalline form", "Unchanged"),
    ("CC1COCCN1c1cc(C(C)(C)C#N)c2c(n1)c(-c1cc[nH]n1)nn2C.CS(=O)(=O)O (stereo not drawn) [Crystalline form α of mesylate]", "Crystalline form", "Unchanged"),
    ("CC1COCCN1c1cc(C(C)(C)C#N)c2c(n1)c(-c1cc[nH]n1)nn2C.CC1COCCN1c1cc(C(C)(C)C#N)c2c(n1)c(-c1cc[nH]n1)nn2C.O=C(O)C(=O)O (centres unmarked) [Crystalline form a of oxalate]", "Crystalline form", "Unchanged"),
]

Consider the additional molecule presented here.
q: Query: Crystalline form; subject: CC1COCCN1c1cc(C(C)(C)C#N)c2c(n1)c(-c1cc[nH]n1)nn2C.O=S(=O)(O)O (stereo not drawn) [Crystalline form α of sulfate]
a: Unchanged

---

assay.notes: Long-term/accelerated stability test of crystalline salt forms in sealed aluminum foil bags
Assay type: physicochemical
condition: −20° C., 3 months
Give Purity (%) for every item shown.
Kindly answer with a numeric value in %, unit omitted.

q: Looking for the measured Purity (%) of CC1COCCN1c1cc(C(C)(C)C#N)c2c(n1)c(-c1cc[nH]n1)nn2C.CS(=O)(=O)O (stereo not drawn) [Crystalline form α of mesylate] , can you help?
a: 98.61

q: Name the recorded Purity (%) for CC1COCCN1c1cc(C(C)(C)C#N)c2c(n1)c(-c1cc[nH]n1)nn2C.O=C(O)C=CC(=O)O (stereo not shown) [Crystalline form I of maleate] .
a: 99.00

q: Returns the measured Purity (%) for the input molecule. Input: CC1COCCN1c1cc(C(C)(C)C#N)c2c(n1)c(-c1cc[nH]n1)nn2C.CC1COCCN1c1cc(C(C)(C)C#N)c2c(n1)c(-c1cc[nH]n1)nn2C.O=C(O)C(=O)O (stereo not shown) [Crystalline form a of oxalate]
a: 99.46

q: State the recorded Purity (%) for this entry: CC1COCCN1c1cc(C(C)(C)C#N)c2c(n1)c(-c1cc[nH]n1)nn2C.Cc1ccc(S(=O)(=O)O)cc1 (stereo not shown) [Crystalline form a of p-toluenesulfonate]
a: 98.66

---

assay.notes: Pharmacokinetic study in rats after intragastric administration
Format: in vivo
condition: both sexes, rat, plasma, po, SD rats, 2 mg/kg, read-out: Half-life T1/2 (converted)
measured.quantity: half-life (h)
Give just the number in h; leave the unit off.

q: # input compound: C[C@@H]1COCCN1c1cc(C(C)(C)C#N)c2c(n1)c(-c1cc[nH]n1)nn2C [Example 1] ; wanted: its half-life
a: 2.62

---

assay.notes: Long-term/accelerated stability test of crystalline salt forms in sealed aluminum foil bags
Assay type: physicochemical
condition: 25° C./60% RH, 1 month
Protocol: The crystalline form α of mesylate, the crystalline form α of sulfate, the crystalline form I of maleate, the crystalline form a of p-toluenesulfonate and the crystalline form a of oxalate were stored in sealed aluminum foil bags and subjected to stability test under the conditions of −20° C., 4° C., 25° C./60% RH and 40° C./75% RH.
measured.quantity: Purity (%)
Please give a number only; it is taken to be in %.

q: GET /values?readout=Purity (%)&item= CC1COCCN1c1cc(C(C)(C)C#N)c2c(n1)c(-c1cc[nH]n1)nn2C.O=S(=O)(O)O (stereo not drawn) [Crystalline form α of sulfate]
a: 93.00

q: Reported Purity (%) for CC1COCCN1c1cc(C(C)(C)C#N)c2c(n1)c(-c1cc[nH]n1)nn2C.CC1COCCN1c1cc(C(C)(C)C#N)c2c(n1)c(-c1cc[nH]n1)nn2C.O=C(O)C(=O)O (centres unmarked) [Crystalline form a of oxalate] : what is it?
a: 99.53

q: Can you share its Purity (%)? I mean this compound: CC1COCCN1c1cc(C(C)(C)C#N)c2c(n1)c(-c1cc[nH]n1)nn2C.O=C(O)C=CC(=O)O (centres unmarked) [Crystalline form I of maleate]
a: 98.84

q: Which value of Purity (%) has been reported for CC1COCCN1c1cc(C(C)(C)C#N)c2c(n1)c(-c1cc[nH]n1)nn2C.Cc1ccc(S(=O)(=O)O)cc1 (centres unmarked) [Crystalline form a of p-toluenesulfonate] in the records?
a: 98.41

q: Dear colleague, I am looking for the recorded Purity (%) of the following compound: CC1COCCN1c1cc(C(C)(C)C#N)c2c(n1)c(-c1cc[nH]n1)nn2C.CS(=O)(=O)O (stereo not drawn) [Crystalline form α of mesylate]
a: 98.53

---

assay.notes: Long-term/accelerated stability test of crystalline salt forms in sealed aluminum foil bags
Assay type: physicochemical
condition: 40° C./75% RH, 2 months
What Purity (%) was measured for each of the following?
Numbers only; they are read as %.

q: Please give the measured Purity (%) for this molecule: CC1COCCN1c1cc(C(C)(C)C#N)c2c(n1)c(-c1cc[nH]n1)nn2C.CS(=O)(=O)O (stereo not drawn) [Crystalline form α of mesylate]
a: 97.56

q: Given the molecule CC1COCCN1c1cc(C(C)(C)C#N)c2c(n1)c(-c1cc[nH]n1)nn2C.CC1COCCN1c1cc(C(C)(C)C#N)c2c(n1)c(-c1cc[nH]n1)nn2C.O=C(O)C(=O)O (centres unmarked) [Crystalline form a of oxalate] , what is its reported Purity (%)?
a: 99.39

q: Request the reported Purity (%) associated with CC1COCCN1c1cc(C(C)(C)C#N)c2c(n1)c(-c1cc[nH]n1)nn2C.Cc1ccc(S(=O)(=O)O)cc1 (centres unmarked) [Crystalline form a of p-toluenesulfonate]
a: 96.90

q: Reported Purity (%), molecule CC1COCCN1c1cc(C(C)(C)C#N)c2c(n1)c(-c1cc[nH]n1)nn2C.O=S(=O)(O)O (stereo not drawn) [Crystalline form α of sulfate] : ____
a: 83.97

q: Bench note: what Purity (%) did CC1COCCN1c1cc(C(C)(C)C#N)c2c(n1)c(-c1cc[nH]n1)nn2C.O=C(O)C=CC(=O)O (centres unmarked) [Crystalline form I of maleate] show?
a: 98.26

---

assay.notes: Long-term/accelerated stability test of crystalline salt forms in sealed aluminum foil bags
Type: physicochemical
condition: Initial
measured.quantity: Purity (%)
The answer is to be given in %; state only the numeric part.

q: # lookup: Purity (%) of CC1COCCN1c1cc(C(C)(C)C#N)c2c(n1)c(-c1cc[nH]n1)nn2C.CS(=O)(=O)O (stereo not drawn) [Crystalline form α of mesylate]
a: 98.72

q: Looking for the measured Purity (%) of CC1COCCN1c1cc(C(C)(C)C#N)c2c(n1)c(-c1cc[nH]n1)nn2C.O=C(O)C=CC(=O)O (centres unmarked) [Crystalline form I of maleate] , can you help?
a: 98.97

q: What value of Purity (%) has been recorded for this entry: CC1COCCN1c1cc(C(C)(C)C#N)c2c(n1)c(-c1cc[nH]n1)nn2C.CC1COCCN1c1cc(C(C)(C)C#N)c2c(n1)c(-c1cc[nH]n1)nn2C.O=C(O)C(=O)O (centres unmarked) [Crystalline form a of oxalate]
a: 99.57

q: I have this compound here, CC1COCCN1c1cc(C(C)(C)C#N)c2c(n1)c(-c1cc[nH]n1)nn2C.O=S(=O)(O)O (stereo not drawn) [Crystalline form α of sulfate] , and I need its recorded Purity (%).
a: 97.55

q: Which Purity (%) value is on record for CC1COCCN1c1cc(C(C)(C)C#N)c2c(n1)c(-c1cc[nH]n1)nn2C.Cc1ccc(S(=O)(=O)O)cc1 (centres unmarked) [Crystalline form a of p-toluenesulfonate] ?
a: 98.69
